Just for reference, paper PMC12483202 is where these values come from.

# Protocol Text: Single oral dose (5 mg/kg) pharmacokinetics of firocoxib in koalas, plasma HPLC, non-compartmental analysis
# Condition Set: female, plasma, po, 5 mg/kg, AUC0-t, K5 female; single oral 5 mg/kg

Compound Structure String: CC1(C)OC(=O)C(OCC2CC2)=C1c1ccc(S(C)(=O)=O)cc1
AUC(0-t) (ng·h/mL): 820

---

# Protocol Text: Single oral dose (5 mg/kg) pharmacokinetics of firocoxib in koalas, plasma HPLC, non-compartmental analysis
# Condition Set: both, plasma, po, 5 mg/kg, t1/2, median (range), n = 6 koalas; single oral 5 mg/kg

Compound Structure String: CC1(C)OC(=O)C(OCC2CC2)=C1c1ccc(S(C)(=O)=O)cc1
half-life (h): 5.46

---

# Protocol Text: Single oral dose (5 mg/kg) pharmacokinetics of firocoxib in koalas, plasma HPLC, non-compartmental analysis
# Condition Set: male, plasma, po, 5 mg/kg, Cmax, K3 male; single oral 5 mg/kg

Compound: CC1(C)OC(=O)C(OCC2CC2)=C1c1ccc(S(C)(=O)=O)cc1 [firocoxib]
Cmax / µg/mL: 0.263

---

# Protocol Text: Single oral dose (5 mg/kg) pharmacokinetics of firocoxib in koalas, plasma HPLC, non-compartmental analysis
# Condition Set: both, plasma, po, 5 mg/kg, AUC0-t, arithmetic mean, n = 6 koalas; single oral 5 mg/kg

Compound Structure String: CC1(C)OC(=O)C(OCC2CC2)=C1c1ccc(S(C)(=O)=O)cc1
AUC(0-t) [ng·h/mL]: 1310

---

# Protocol Text: Repeated oral dosing (5 mg/kg every 12 h, six doses) plasma trough concentrations in koalas
# Type: in vivo
# Condition Set: male, koala (Phascolarctos cinereus), plasma, harmonic mean, males, 24 h, 5 mg/kg oral every 12 h, read-out: Firocoxib trough plasma concentration

Compound Structure String: CC1(C)OC(=O)C(OCC2CC2)=C1c1ccc(S(C)(=O)=O)cc1
concentration at 24 h [ng/mL]: 30.3

---

# Protocol Text: Single oral dose (5 mg/kg) pharmacokinetics of firocoxib in koalas, plasma HPLC, non-compartmental analysis
# Condition Set: female, plasma, po, 5 mg/kg, MRT0-inf, K4 female; single oral 5 mg/kg

Compound: CC1(C)OC(=O)C(OCC2CC2)=C1c1ccc(S(C)(=O)=O)cc1 [firocoxib]
MRT inf: 8.74 h

---

# Protocol Text: Single oral dose (5 mg/kg) pharmacokinetics of firocoxib in koalas, plasma HPLC, non-compartmental analysis
# Condition Set: female, plasma, po, 5 mg/kg, MRT0-inf, arithmetic mean, female koalas (n = 3); single oral 5 mg/kg
Endpoint: MRT inf (h)

Compound Structure String: CC1(C)OC(=O)C(OCC2CC2)=C1c1ccc(S(C)(=O)=O)cc1
Reading: 16.1

---

# Protocol Text: Single oral dose (5 mg/kg) pharmacokinetics of firocoxib in koalas, plasma HPLC, non-compartmental analysis;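 also: healthy adult koalas, three per sex, anaesthetised the day before dosing for cephalic vein catheterisation, with serial blood draws and firocoxib in plasma quantified by HPLC using fluorescence detection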
# Condition Set: female, koala, plasma, po, 5 mg/kg, Firocoxib plasma concentration, K6 female; 0.5 h; single oral 5 mg/kg

Compound Structure String: CC1(C)OC(=O)C(OCC2CC2)=C1c1ccc(S(C)(=O)=O)cc1
concentration at 0.5 h (ng/mL): 10.6

---

# Protocol Text: Repeated oral dosing (5 mg/kg every 12 h, six doses) plasma trough concentrations in koalas
# Type: in vivo
# Condition Set: male, koala (Phascolarctos cinereus), plasma, harmonic mean, males, 72 h, 5 mg/kg oral every 12 h, read-out: Firocoxib trough plasma concentration

Compound Structure String: CC1(C)OC(=O)C(OCC2CC2)=C1c1ccc(S(C)(=O)=O)cc1
concentration at 72 h: 48.5 ng/mL
